// data source = patent US7090843B1

# System: HD cell line L428
# MEASUREMENT PROTOCOL: Chemotherapeutic drugs on L428 cells pre-cultured with or without cross-linked AC10 (3H-thymidine)
# Format: cell-based
# TEST SETTINGS: L428, combination of drug and AC10 0.1 μg/ml cross-linked; read-out: EC50 (after incubation with AC10)
pEC50: −log10 of the molar value.
MEASURE: pEC50

Q: // lookup pEC50 for N.N.[Cl][Pt][Cl] [Cisplatin]
Ans: ~6.30
